Recorded measurements of phosphorylation enrichment, one per entry
- Test system: c-Src
- ASSAY_PROTOCOL: phosphorylation enrichment, bacterial display (enrichment ratio); higher = better substrate or ligand; peptides without Tyr show the background;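 note: 11-residue human phosphosite peptides and single-mutation variants displayed on the E. coli surface, counted by deep sequencing, each peptide's frequency after selection divided by its frequency in the unselected input library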;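 note: frequency after pTyr selection over input frequency; kinase dosed for 20-30% of maximal phosphorylation in three min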
Give the figure by itself; no unit, no explanation.

REVPVYTFSEP [FAM120B_Y368_D370Y_YF] : 9.04

Reading of phosphorylation enrichment for FKDYFYCWNTF [AICDA_Y146] with c-Src: 1.41

Reading of phosphorylation enrichment for KVITDYFVDMK [MPP4_Y566_YF] with c-Src: 0.435

Reading of phosphorylation enrichment for RASDYYSQQMA [GBP6_Y334_A331S] with c-Src: 0.41

Reading of phosphorylation enrichment for ISSLLYELLEE [TRPC6_Y896_R895L] with c-Src: 3.33

Reading of phosphorylation enrichment for VIESSYQVAKA [CPT1B_Y534] with c-Src: 0.483

* * *

Recorded measurements of phosphorylation enrichment, one per entry
- EXPERIMENTAL_SYSTEM: EPHB2 (UniProt P29323)
- Sequence (P29323 whole entry, looked up): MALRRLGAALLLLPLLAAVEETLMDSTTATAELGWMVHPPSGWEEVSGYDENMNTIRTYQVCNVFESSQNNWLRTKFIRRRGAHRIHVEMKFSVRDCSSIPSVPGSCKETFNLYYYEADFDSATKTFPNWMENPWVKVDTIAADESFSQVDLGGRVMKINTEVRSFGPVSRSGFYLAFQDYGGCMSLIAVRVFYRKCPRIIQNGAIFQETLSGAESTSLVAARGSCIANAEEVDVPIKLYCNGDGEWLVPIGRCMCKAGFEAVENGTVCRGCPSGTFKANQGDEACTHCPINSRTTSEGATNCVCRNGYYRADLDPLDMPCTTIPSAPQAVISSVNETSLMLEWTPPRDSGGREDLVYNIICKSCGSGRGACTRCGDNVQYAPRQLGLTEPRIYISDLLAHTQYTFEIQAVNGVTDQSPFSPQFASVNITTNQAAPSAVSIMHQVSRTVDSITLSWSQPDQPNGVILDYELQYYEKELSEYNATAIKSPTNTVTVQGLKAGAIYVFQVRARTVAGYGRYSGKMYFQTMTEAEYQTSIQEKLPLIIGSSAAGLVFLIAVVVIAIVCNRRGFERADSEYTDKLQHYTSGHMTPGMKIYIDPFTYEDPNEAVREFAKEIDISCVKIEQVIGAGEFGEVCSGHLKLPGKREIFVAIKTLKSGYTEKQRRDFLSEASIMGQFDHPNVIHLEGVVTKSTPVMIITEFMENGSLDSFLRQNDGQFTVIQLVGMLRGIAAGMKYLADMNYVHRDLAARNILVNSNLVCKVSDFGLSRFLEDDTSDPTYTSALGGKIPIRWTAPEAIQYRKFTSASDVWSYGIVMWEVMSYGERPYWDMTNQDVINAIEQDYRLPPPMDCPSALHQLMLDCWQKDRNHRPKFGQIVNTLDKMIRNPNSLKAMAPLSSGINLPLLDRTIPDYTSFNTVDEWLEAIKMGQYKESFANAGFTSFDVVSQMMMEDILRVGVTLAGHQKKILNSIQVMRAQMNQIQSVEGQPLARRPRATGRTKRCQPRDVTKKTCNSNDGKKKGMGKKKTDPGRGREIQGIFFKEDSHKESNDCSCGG
- ASSAY_PROTOCOL: phosphorylation enrichment, bacterial display (enrichment ratio); higher = better substrate or ligand; peptides without Tyr show the background
Give the figure by itself; no unit, no explanation.

Completed entries (count: 4):
VSTKVYKRFPS [BEST1_Y148_A146K] : 0.348
VNKIYHPDFIV [LIG3_Y768_Y768H] : 0.417
PDMHSYMVRFN [GRIN2D_Y732_YF] : 0.69
PDGVEYLKNDP [GRIN3A_Y831] : 0.524

The reported value for RPPFTYATLIH [FOXP3_Y342_R347H] in terms of phosphorylation enrichment is 0.753

The reported value for DASAVYLRDFQ [PLCG2_Y242_H244R] in terms of phosphorylation enrichment is 0.492

The reported value for GIVEDYRPRFF [ACVRL1_Y421_P424R_YF] in terms of phosphorylation enrichment is 0.468

The reported value for REAMEYLESKQ [BTK_Y511_C506R] in terms of phosphorylation enrichment is 0.573

The reported value for IRNRDYDDIDD [TTYH2_Y424_T419I] in terms of phosphorylation enrichment is 0.575

The reported value for ESKKHYGFSLF [ANXA3_Y295_F291S_YF] in terms of phosphorylation enrichment is 0.541

The reported value for DSMQSYDLDFP [UNC13B_Y243_YF] in terms of phosphorylation enrichment is 0.546

The reported value for LAIERYVVVSK [RHO_Y136_C140S] in terms of phosphorylation enrichment is 3.45

The reported value for RGSQQYRALTV [TUBB8_Y281] in terms of phosphorylation enrichment is 0.518

The reported value for DEDFLYREELA [POR_Y575_YF] in terms of phosphorylation enrichment is 0.594

The reported value for ASTHIYQIMNH [ITK_Y588_V587I] in terms of phosphorylation enrichment is 2.63

The reported value for TFAVSYLPDMS [FLNC_Y1602_T1599A_YF] in terms of phosphorylation enrichment is 0.392

The reported value for PGPQSYPIVTG [PAX5_Y299] in terms of phosphorylation enrichment is 0.538

The reported value for LHQSTYQRFDV [SLC7A14_Y693_YF] in terms of phosphorylation enrichment is 1.17

The reported value for ERRLIYASDPK [VPS13D_Y864_T865A] in terms of phosphorylation enrichment is 0.391

The reported value for AAALAYGLDKS [HSPA9_Y230] in terms of phosphorylation enrichment is 0.4

The reported value for GEHSIYCTVNN [CD55_Y266] in terms of phosphorylation enrichment is 5.39

The reported value for VSRGRYRPQEC [B4GALT4_Y113] in terms of phosphorylation enrichment is 0.476
